Recorded values, source the supplement of paper PMC13380429.

For each record, write down the corresponding SARS-CoV-2 infection rate.
Tested on: Vero E6 infected with SARS-CoV-2
Test: SARS-CoV-2 infection rate relative to infected DMSO; higher = more infection, active = 60 or less
Settings: 24 h
Please give a number only; it is taken to be in %.

Query: Quick one: give measured SARS-CoV-2 infection rate for C#Cc1cccc(Nc2ncnc3cc(OCCOC)c(OCCOC)cc23)c1 [erlotinib] (10 µM)
Result: 116

Query: Quick one: give measured SARS-CoV-2 infection rate for C[C@@H](N[C@H]1CCCC[C@@H]1NC(=O)c1ccc(Cl)cc1)c1cccc2ccccc12 [Calhex-231] (10 µM)
Result: 91.5

Query: Quick one: give measured SARS-CoV-2 infection rate for C=CC(=O)Nc1cccc(Oc2nc(Nc3ccc(N4CCN(C)CC4)cc3OC)ncc2Cl)c1 (0.833333 µM)
Result: 115

Query: Quick one: give measured SARS-CoV-2 infection rate for C=CCc1ccc(O)c(-c2cc(CC=C)ccc2O)c1 [magnolol] (10 µM)
Result: 108

Query: Quick one: give measured SARS-CoV-2 infection rate for O=c1oc2cc(O)ccc2s1 [tioxolone] (10 µM)
Result: 104

Query: Quick one: give measured SARS-CoV-2 infection rate for C=CC(=O)Nc1ccc2ncnc(Nc3cccc(Br)c3)c2c1 (0.833333 µM)
Result: 90

Query: Quick one: give measured SARS-CoV-2 infection rate for C[C@@H]1CN(c2c(F)c(N)c3c(=O)c(C(=O)O)cn(C4CC4)c3c2F)C[C@H](C)N1 [sparfloxacin] (10 µM)
Result: 115

Query: Quick one: give measured SARS-CoV-2 infection rate for Cn1c(Nc2ccc(C(F)(F)F)cc2)nc2cc(Oc3ccnc(-c4ncc(C(F)(F)F)[nH]4)c3)ccc21 (10 µM)
Result: 100

Query: Quick one: give measured SARS-CoV-2 infection rate for CC1CCC(NC(=O)N(CCCl)N=O)CC1 (configuration not stated) [semustine] (10 µM)
Result: 116

Query: Quick one: give measured SARS-CoV-2 infection rate for Cc1ccc([N+](=O)[O-])cc1O [2-methyl-5-nitrophenol] (10 µM)
Result: 98.5

Query: Quick one: give measured SARS-CoV-2 infection rate for CNC1CCCN(c2c(F)cc3c(=O)c(C(=O)O)cn(C4CC4)c3c2OC)C1 (configuration not stated) [balofloxacin] (10 µM)
Result: 104

Query: Quick one: give measured SARS-CoV-2 infection rate for CCC(=N\O)/C(C)=C/c1ccc(F)cc1 (10 µM)
Result: 110

Query: Quick one: give measured SARS-CoV-2 infection rate for O=C(OCC(O)CO)c1ccccc1Nc1ccnc2cc(Cl)ccc12 (configuration not stated) [glafenine] (10 µM)
Result: 83

Query: Quick one: give measured SARS-CoV-2 infection rate for Cc1cccc(C)c1NC(=O)CN1CCCCCC1 [pincainide] (10 µM)
Result: 106

Query: Quick one: give measured SARS-CoV-2 infection rate for OC[C@@H](O)[C@@H](O)[C@@H](O)CO [ribitol] (10 µM)
Result: 105

Query: Quick one: give measured SARS-CoV-2 infection rate for Cc1cccc(C)c1OCC(=O)N[C@@H](Cc1ccccc1)[C@@H](O)C[C@H](Cc1ccccc1)NC(=O)[C@H](C(C)C)N1CCCNC1=O [lopinavir] (10 µM)
Result: 105

Query: Quick one: give measured SARS-CoV-2 infection rate for OC[C@H]1O[C@H](O[C@H]2[C@H](O)[C@@H](O)[C@H](O)O[C@@H]2CO)[C@H](O)[C@@H](O)[C@@H]1O [D-(+)-maltose] (10 µM)
Result: 86

###

System: Vero E6 infected with SARS-CoV-2
Experiment: inhibition of SARS-CoV-2 cytopathic effect; higher = more antiviral protection, active = above 15
Conditions: 100 nM; 48 h
For each record, write down the corresponding inhibition of SARS-CoV-2 cytopathic effect.
Please give a number only; it is taken to be in %.

Query: Quick one: give measured inhibition of SARS-CoV-2 cytopathic effect for COc1ccc2[nH]c(I)c(CCNC(C)=O)c2c1 [2-iodomelatonin]
Result: 0.99

Query: Quick one: give measured inhibition of SARS-CoV-2 cytopathic effect for CCCCCCCCCCCCCCCC(=O)C(F)(F)F
Result: -10.8

Query: Quick one: give measured inhibition of SARS-CoV-2 cytopathic effect for CC(C)NCCN(C(C)C)S(=O)(=O)c1ccc(Cl)cc1Cl
Result: 0.74

Query: Quick one: give measured inhibition of SARS-CoV-2 cytopathic effect for COC(=O)N/N=C/c1c[n+]([O-])c2ccccc2[n+]1[O-] [carbadox]
Result: 0.99

Query: Quick one: give measured inhibition of SARS-CoV-2 cytopathic effect for CCN(CC)CCOc1ccc(/C(=C(\Cl)c2ccccc2)c2ccccc2)cc1 [clomifene]
Result: 2.27

Query: Quick one: give measured inhibition of SARS-CoV-2 cytopathic effect for C[C@H]1[C@H](NC(=O)/C(=N\OC(C)(C)C(=O)O)c2csc(N)n2)C(=O)N1S(=O)(=O)O [aztreonam]
Result: 1.14

Query: Quick one: give measured inhibition of SARS-CoV-2 cytopathic effect for CC(C)(C)NCC(O)CSc1nc(-c2ccc(C(N)=O)s2)cs1 (stereo not given) [arotinolol]
Result: -11

Query: Quick one: give measured inhibition of SARS-CoV-2 cytopathic effect for CCN(CCNC(=O)Nc1ccccc1Br)c1cccc(C)c1
Result: -0.41

Query: Quick one: give measured inhibition of SARS-CoV-2 cytopathic effect for O=C(Nc1cccc(Cl)c1)Nc1ncc(CCNc2ncnc3ccsc23)s1
Result: 3.34

Query: Quick one: give measured inhibition of SARS-CoV-2 cytopathic effect for COc1cc(C(=O)NCCCCCC(=O)O)cc(OC)c1OC [capobenic-acid]
Result: -0.79

###

Test system: Vero E6 infected with SARS-CoV-2
Test: inhibition of SARS-CoV-2 cytopathic effect; higher = more antiviral protection, active = above 15
Details: 10000 nM; 48 h
For each record, write down the corresponding inhibition of SARS-CoV-2 cytopathic effect.
Please give a number only; it is taken to be in %.

Query: Quick one: give measured inhibition of SARS-CoV-2 cytopathic effect for O=C/C=C/c1ccccc1
Result: 5.38

Query: Quick one: give measured inhibition of SARS-CoV-2 cytopathic effect for Cc1ncc([N+](=O)[O-])n1CC(O)CN1CCOCC1 (stereo not given)
Result: -0.64

Query: Quick one: give measured inhibition of SARS-CoV-2 cytopathic effect for Nc1nc(Nc2ccc(S(N)(=O)=O)cc2)nn1C(=O)c1c(F)cccc1F
Result: 10.8

Query: Quick one: give measured inhibition of SARS-CoV-2 cytopathic effect for O=C(Nc1ccc(Br)cc1)c1cc(Br)cc(Br)c1O
Result: 6.65

Query: Quick one: give measured inhibition of SARS-CoV-2 cytopathic effect for Cc1ccc(F)c(NC(=O)Nc2ccc(-c3cccc4[nH]nc(N)c34)cc2)c1
Result: -2.71

###

System: Vero E6 infected with SARS-CoV-2
Experiment: inhibition of SARS-CoV-2 cytopathic effect; higher = more antiviral protection, active = above 15
Conditions: 10000 nM; 48 h
readout name: inhibition of SARS-CoV-2 cytopathic effect

Query: Quick one: give measured inhibition of SARS-CoV-2 cytopathic effect for O=C1C[C@@]2(C(=O)N1)C(=O)N(Cc1ccc(Br)cc1F)C(=O)c1cccn12
Result: 1.01% (inactive)

Query: Quick one: give measured inhibition of SARS-CoV-2 cytopathic effect for O=C(Nc1cc(-c2ccccc2)nn1-c1ccccc1F)c1ccc([N+](=O)[O-])cc1
Result: 2.79% (inactive)

Query: Quick one: give measured inhibition of SARS-CoV-2 cytopathic effect for CC(C)(C)CC(=O)Nc1c(F)cc(C(=O)/N=c2\sccn2COP(=O)(O)O)cc1F
Result: 2.91% (inactive)

Query: Quick one: give measured inhibition of SARS-CoV-2 cytopathic effect for CN1CCN(c2ccc3ccccc3n2)CC1
Result: -0.19% (inactive)

Query: Quick one: give measured inhibition of SARS-CoV-2 cytopathic effect for O=C1CN(/N=C/c2ccc([N+](=O)[O-])o2)C(=O)N1
Result: 1.5% (inactive)

Query: Quick one: give measured inhibition of SARS-CoV-2 cytopathic effect for CCCn1c(=O)c2nc(-c3ccccc3)[nH]c2n(CCC)c1=O
Result: -1.61% (inactive)

Query: Quick one: give measured inhibition of SARS-CoV-2 cytopathic effect for CCN(C(C)=O)c1cccc(-c2ccnc3c(C#N)cnn23)c1
Result: -0.53% (inactive)

Query: Quick one: give measured inhibition of SARS-CoV-2 cytopathic effect for CCCCCCCCCCCC(=O)N(CCO)CCO [lauric-diethanolamide]
Result: -2.1% (inactive)

Query: Quick one: give measured inhibition of SARS-CoV-2 cytopathic effect for OCCN1C[C@H](O)[C@@H](O)[C@H](O)[C@H]1CO
Result: -4.78% (inactive)

Query: Quick one: give measured inhibition of SARS-CoV-2 cytopathic effect for CC(=O)OCC(=O)[C@@]1(O)CC[C@H]2[C@@H]3CCC4=CC(=O)C=C[C@]4(C)[C@H]3[C@@H](O)C[C@@]21C [prednisolone-acetate]
Result: 0.26% (inactive)

Query: Quick one: give measured inhibition of SARS-CoV-2 cytopathic effect for N[C@@H]1CCCCN(c2c(F)cc3c(=O)c(C(=O)O)cn(C4CC4)c3c2Cl)C1
Result: 2.15% (inactive)

Query: Quick one: give measured inhibition of SARS-CoV-2 cytopathic effect for C[N+]1(C)[C@@H]2CC[C@H]1C[C@@H](OC(=O)C(CO)c1ccccc1)C2 (stereo partly drawn) [methylatropine-nitrate]
Result: 3.88% (inactive)

Query: Quick one: give measured inhibition of SARS-CoV-2 cytopathic effect for O=C(NCNC(=O)NC1C(=O)NC(=O)N1CO)NC1C(=O)NC(=O)N1CO (stereo not drawn)
Result: 0.38% (inactive)

Query: Quick one: give measured inhibition of SARS-CoV-2 cytopathic effect for O=C(C[C@H]1CC(c2ccc(F)cc2F)=NO1)N1CCOCC1 (racemic)
Result: 1.2% (inactive)

Query: Quick one: give measured inhibition of SARS-CoV-2 cytopathic effect for COc1ccc(-n2nc(CCC(=O)N(C)O)cc2-c2ccc(Cl)cc2)cc1
Result: -0.4% (inactive)

Query: Quick one: give measured inhibition of SARS-CoV-2 cytopathic effect for CCn1c(=O)[nH]c2ccccc21
Result: -3.51% (inactive)

Query: Quick one: give measured inhibition of SARS-CoV-2 cytopathic effect for CCOc1cccc(NC(=O)c2ccc(N3CCCC3)c(C(F)(F)F)c2)c1
Result: -2.63% (inactive)

Query: Quick one: give measured inhibition of SARS-CoV-2 cytopathic effect for C/C(=N\NC(=O)C(NC(=O)c1ccccc1)c1n[nH]c(=O)c2ccccc12)c1cccc(Br)c1 (stereo not drawn)
Result: 4.46% (inactive)
